- Tested on: sulphonamide antibodies
- assay.method.text: Multi-sulphonamide competitive immunoassay in microchannels, chemiluminescent CCD detection (Example 3)
- Assay type: binding
- measurement.parameters: 100 ng/ml standard; microchannel device; 2 minutes incubation
Some compounds, each annotated with its measured % B/Bo.

chemical.structure	% B/Bo
Cc1cc(C)nc(NS(=O)(=O)c2ccc(N)cc2)n1	7%
COc1ccc(NS(=O)(=O)c2ccc(N)cc2)nn1	15%
Cc1ccnc(NS(=O)(=O)c2ccc(N)cc2)n1	22%
Nc1ccc(S(=O)(=O)Nc2cnc3ccccc3n2)cc1	24%

###

- Tested on: sulphonamide antibodies
- assay.method.text: Multi-sulphonamide competitive immunoassay, antibodies on APTES ceramic substrates with dihydrazide linker, with or without periodate activation
- Assay type: binding
- measurement.parameters: 10 ng/ml standard; antibodies treated by periodate method, covalently immobilised (Table 5)

compound	quantity.unit	% B/Bo
Nc1ccc(S(=O)(=O)Nc2cnc3ccccc3n2)cc1 [Sulphaquinoxaline, sulphaquinoxaline]	%	58
Cc1noc(NS(=O)(=O)c2ccc(N)cc2)c1C [Sulphisoxazole, sulphisoxazole]	%	27
COc1cc(NS(=O)(=O)c2ccc(N)cc2)nc(OC)n1 [Sulphadimethoxine, sulphadimethoxine]	%	46
Nc1ccc(S(=O)(=O)Nc2ccc(Cl)nn2)cc1 [Sulphachloropyridazine, sulphachloropyridazine]	%	30
COc1ccc(NS(=O)(=O)c2ccc(N)cc2)nn1 [Sulphamethoxypyridazine, sulphamethoxypyridazine]	%	74
Cc1nnc(NS(=O)(=O)c2ccc(N)cc2)s1 [Sulphamethizole, sulphamethizole]	%	33
Cc1ccnc(NS(=O)(=O)c2ccc(N)cc2)n1 [Sulphamerazine, sulphamerazine]	%	43
Nc1ccc(S(=O)(=O)Nc2nccs2)cc1 [Sulphathiazole, sulphathiazole]	%	32
Cc1cc(C)nc(NS(=O)(=O)c2ccc(N)cc2)n1 [Sulphamethazine, sulphamethazine]	%	77
COc1ncnc(NS(=O)(=O)c2ccc(N)cc2)c1OC [Sulphadoxine, sulphadoxine]	%	31

The measured values listed here are drawn from patent EP0874242A1.
